# MEASUREMENT TARGET: hGLP-1R (Homo sapiens, UniProt P43220)
# Sequence (P43220 24-463): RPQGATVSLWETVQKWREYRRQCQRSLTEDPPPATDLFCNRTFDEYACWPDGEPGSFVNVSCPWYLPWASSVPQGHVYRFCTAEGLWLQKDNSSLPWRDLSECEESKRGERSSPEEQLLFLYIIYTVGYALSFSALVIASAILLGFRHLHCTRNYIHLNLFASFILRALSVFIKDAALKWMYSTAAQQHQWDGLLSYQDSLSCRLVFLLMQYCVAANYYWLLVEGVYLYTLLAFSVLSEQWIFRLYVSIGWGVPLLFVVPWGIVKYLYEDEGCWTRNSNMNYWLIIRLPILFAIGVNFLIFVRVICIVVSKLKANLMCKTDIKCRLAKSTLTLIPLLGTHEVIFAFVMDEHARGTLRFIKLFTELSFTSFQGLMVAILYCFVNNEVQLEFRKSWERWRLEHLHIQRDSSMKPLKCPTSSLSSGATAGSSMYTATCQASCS
# PROTOCOL DETAILS: Functional cAMP activity in the presence of 1% HSA
# Type: cell-based
# TEST CONTEXT: read-out: cAMP Rel EC50, hGLP-1R
Starred links: 1 amine or outer side, 2 acyl side, 3 side chain; linkers in the order of their positions; H or OH if unused. Non-standard residues stand in square brackets, D forms with d. Groups on a side chain read outwards from the residue. No end group written: not given here. *: point of attachment. C20 diacid = O=C(O)CCCCCCCCCCCCCCCCCCC(=O)*; C18 diacid = O=C(O)CCCCCCCCCCCCCCCCC(=O)*; Phe(4-CN) = N#Cc1ccc(C[C@H](N)C(=O)O)cc1; αMePhe(2-F) = C[C@](N)(Cc1ccccc1F)C(=O)O; γGlu = O=C(O)[C@H](CCC(=O)[*:2])N[*:1]; αMe4Pal = C[C@](N)(Cc1ccncc1)C(=O)O; αMeY = C[C@](N)(Cc1ccc(O)cc1)C(=O)O; 4Pal = N[C@@H](Cc1ccncc1)C(=O)O; αMeL = CC(C)C[C@](C)(N)C(=O)O; αMeS = C[C@](N)(CO)C(=O)O; Orn = NCCC[C@H](N)C(=O)O; AEEA = NCCOCCOCC(=O)O; Aib = CC(C)(N)C(=O)O
Reported EC50 values for a set of substances
TEST READOUT: EC50 (nM)

SUBSTANCE: H-Y[Aib]QGTFTSDFS[Orn][αMeL]LDKK([AEEA-γGlu-C18 diacid])AQ[Aib]AFIEWLLEGGHSSGEPPPEGS-NH2 [Example 127]
TEST READOUT: EC50
RESULT UNIT: nM
MEAS VALUE: 1000

SUBSTANCE: Y[Aib]QGT[αMePhe(2-F)]TSD[4Pal][αMeS]I[αMeL]LD[Orn]K([γGlu-γGlu-C18 diacid])AQ[Aib][Orn]FI[dE][αMeY]LQEGGPSSGEPPPEGGEE-NH2 [Example 586]
TEST READOUT: EC50
RESULT UNIT: nM
MEAS VALUE: 29.1

SUBSTANCE: Y[Aib]QGT[αMePhe(2-F)]TSD[4Pal][αMeS]I[αMeL]LD[Orn]K([γGlu-γGlu-C18 diacid])AQ[Aib]NFI[dE][αMeY]LQEGGPSSGEPPPEGTE-NH2 [Example 526]
TEST READOUT: EC50
RESULT UNIT: nM
MEAS VALUE: 22.9

SUBSTANCE: H-Y[Aib]QGT[αMePhe(2-F)]TSD[Phe(4-CN)]SILLDKQAQK([AEEA-AEEA-γGlu-C20 diacid])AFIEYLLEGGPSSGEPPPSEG-NH2 [Example 321]
TEST READOUT: EC50
RESULT UNIT: nM
MEAS VALUE: 110

SUBSTANCE: Y[Aib]QGT[αMePhe(2-F)]TSD[4Pal][αMeS]I[αMeL]LD[Orn]K([AEEA-γGlu-C18 diacid])YQ[αMe4Pal]EFI[dE][αMeY]LVEGGPSSGAPPPSGS-NH2 [Example 767]
TEST READOUT: EC50
RESULT UNIT: nM
MEAS VALUE: 56.8
